Sourced from paper PMC2263054

- Tested on: ethoxyresorufin O-deethylase (EROD) activity (CYP1A-like activity)
- TEST_SUMMARY: in vitro
- TEST_CONTEXT: zebrafish, pH 7.8
ASSAY_READOUT: pEC50
Here pEC50 is given on a logarithmic scale as minus log10 of the concentration in mol/L.

Give pEC50 for Cc1ccc2cc3c(ccc4ccccc43)c3c2c1CC3 [3-Methylcholanthrene] tested on ethoxyresorufin O-deethylase (EROD) activity (CYP1A-like activity). 6.43

====

- TARGET_OR_SYSTEM: Xenopus laevis VDR (Xenopus laevis, UniProt O13124)
- Sequence (O13124 90-422): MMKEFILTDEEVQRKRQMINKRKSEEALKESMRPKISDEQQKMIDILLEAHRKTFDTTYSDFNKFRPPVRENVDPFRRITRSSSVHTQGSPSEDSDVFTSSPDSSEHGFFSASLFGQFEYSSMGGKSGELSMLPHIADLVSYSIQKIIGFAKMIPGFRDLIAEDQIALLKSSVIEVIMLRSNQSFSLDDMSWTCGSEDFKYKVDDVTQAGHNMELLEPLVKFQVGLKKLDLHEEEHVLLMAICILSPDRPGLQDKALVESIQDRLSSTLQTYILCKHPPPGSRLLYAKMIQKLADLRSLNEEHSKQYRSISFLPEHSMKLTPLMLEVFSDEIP
- TEST_SUMMARY: luciferase reporter transactivation assay in HepG2-NTCP cells, GAL4/xlVDR LBD chimera with tk-UAS-Luc
- Format: cell-based
- TEST_CONTEXT: screening for activators, at least three concentrations of each drug
ASSAY_READOUT: Effect on Xenopus laevis VDR

// known answers, use as guide
{"GIVEN_SMILES": "CC(=O)N[C@@H](CSC/C=C(\\C)CC/C=C(\\C)CCC=C(C)C)C(=O)O", "Effect on Xenopus laevis VDR": "No effect"}
{"GIVEN_SMILES": "C[C@H](CCC(=O)O)[C@H]1CC[C@H]2[C@@H]3CC[C@@H]4CC(=O)CC[C@]4(C)[C@H]3CC[C@]12C", "Effect on Xenopus laevis VDR": "No effect"}
{"GIVEN_SMILES": "C[C@H](CC(=O)O)[C@H]1CC[C@H]2[C@@H]3CC[C@@H]4C[C@H](O)CC[C@]4(C)[C@H]3C[C@H](O)[C@]12C", "Effect on Xenopus laevis VDR": "No effect"}
{"GIVEN_SMILES": "C[C@H](CCC(=O)NCCS(=O)(=O)[O-])[C@H]1CC[C@H]2[C@@H]3C[C@H](O)[C@@H]4C[C@H](O)CC[C@]4(C)[C@H]3CC[C@]12C.[Na+]", "Effect on Xenopus laevis VDR": "No effect"}
{"GIVEN_SMILES": "C#C[C@]1(O)CC[C@H]2[C@@H]3CCC4=CC(=O)CC[C@@H]4[C@H]3CC[C@@]21CC", "Effect on Xenopus laevis VDR": "No effect"}

Now examine the next entry.
Provide Effect on Xenopus laevis VDR value for the following molecule: `CC/C=C\C/C=C\C/C=C\C/C=C\C/C=C\C/C=C\CCC(=O)O` No effect
